# System: PPARg:RXRa IVT, anti-PPARg (NR concentration 270 nM, RXRa partner concentration 90 nM)
# MEASUREMENT_DESCRIPTION: PBM binding z-score (relative to random genomic background probes); higher = stronger binding; sequences stand for … in GC…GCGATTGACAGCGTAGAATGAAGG
Outcome: yes for PBM binding z-score of at least 3; no for anything lower.

Tell me whether PBM binding z-score is at least 3 here: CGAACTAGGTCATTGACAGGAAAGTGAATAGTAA
yes

Kindly determine if PBM binding z-score recorded for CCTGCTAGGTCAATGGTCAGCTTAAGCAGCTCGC is above or exactly 3.
yes

Answer whether PBM binding z-score of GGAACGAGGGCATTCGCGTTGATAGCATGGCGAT is greater than or equal to 3.
no

Would you say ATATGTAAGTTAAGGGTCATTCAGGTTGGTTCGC shows PBM binding z-score at minimum 3?
yes

hey, is PBM binding z-score for this one >= 3? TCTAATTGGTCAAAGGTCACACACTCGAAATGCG
yes

* * *

The sequences listed here are annotated with their PBM binding z-score.
# Tested on: PPARg DBDmut IVT, anti-PPARg (DBD mutation: PPARg1 K132A/R137A, NR concentration 270 nM)
# MEASUREMENT_DESCRIPTION: PBM binding z-score (relative to random genomic background probes); higher = stronger binding; sequences stand for … in GC…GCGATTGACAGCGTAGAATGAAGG
Enter the number alone.

Answered examples (5):
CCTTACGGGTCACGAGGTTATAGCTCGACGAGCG	1.04
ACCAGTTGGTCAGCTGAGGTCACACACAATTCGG	-0.406
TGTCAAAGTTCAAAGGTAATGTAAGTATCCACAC	1.26
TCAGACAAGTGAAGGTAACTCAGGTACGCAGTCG	-0.174
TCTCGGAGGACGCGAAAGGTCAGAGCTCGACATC	0.428

Note: attention shifts to another entry.
Memo: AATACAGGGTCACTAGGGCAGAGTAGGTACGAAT , reported PBM binding z-score: 2.29

* * *

# Test system: PPARg:RXRa (NR concentration 180 nM, RXRa partner concentration 90 nM)
# MEASUREMENT_DESCRIPTION: PBM binding z-score (relative to random genomic background probes); higher = stronger binding; sequences stand for … in GC…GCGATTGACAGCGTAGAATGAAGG
EXPERIMENTAL_ENDPOINT: PBM binding z-score
# print the numeric value only

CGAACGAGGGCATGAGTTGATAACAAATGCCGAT	1.53
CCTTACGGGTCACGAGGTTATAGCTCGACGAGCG	7.52

Summary: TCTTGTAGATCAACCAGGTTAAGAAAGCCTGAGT , PPARg:RXRa (NR concentration 180 nM, RXRa partner concentration 90 nM), PBM binding z-score = -0.376

Bench note, PPARg:RXRa (NR concentration 180 nM, RXRa partner concentration 90 nM): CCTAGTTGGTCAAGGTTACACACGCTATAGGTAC , PBM binding z-score reads 1.82

PPARg:RXRa (NR concentration 180 nM, RXRa partner concentration 90 nM) assay, sequence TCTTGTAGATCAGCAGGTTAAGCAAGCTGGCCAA , recorded PBM binding z-score = -0.47

Response field PBM binding z-score (PPARg:RXRa (NR concentration 180 nM, RXRa partner concentration 90 nM)) for item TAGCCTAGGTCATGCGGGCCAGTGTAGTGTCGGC : 1.5

PBM binding z-score on PPARg:RXRa (NR concentration 180 nM, RXRa partner concentration 90 nM) for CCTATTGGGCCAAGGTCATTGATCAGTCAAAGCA is 2.79

Observed PBM binding z-score on PPARg:RXRa (NR concentration 180 nM, RXRa partner concentration 90 nM), entry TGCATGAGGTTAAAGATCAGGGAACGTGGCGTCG , equals 4.03

Sample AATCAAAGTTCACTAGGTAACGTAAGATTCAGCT , system: PPARg:RXRa (NR concentration 180 nM, RXRa partner concentration 90 nM). Its PBM binding z-score is 5.39

The observed PBM binding z-score for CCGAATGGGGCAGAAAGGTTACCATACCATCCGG when tested with PPARg:RXRa (NR concentration 180 nM, RXRa partner concentration 90 nM) stands at 2.67

Field PBM binding z-score (PPARg:RXRa (NR concentration 180 nM, RXRa partner concentration 90 nM)), entry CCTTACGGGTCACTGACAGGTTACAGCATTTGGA : 4.41

Summary: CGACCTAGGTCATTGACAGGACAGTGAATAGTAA , PPARg:RXRa (NR concentration 180 nM, RXRa partner concentration 90 nM), PBM binding z-score = 3.67

The recorded PBM binding z-score with PPARg:RXRa (NR concentration 180 nM, RXRa partner concentration 90 nM) for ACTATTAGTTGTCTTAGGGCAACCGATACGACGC was 0.651

Assay PPARg:RXRa (NR concentration 180 nM, RXRa partner concentration 90 nM), sample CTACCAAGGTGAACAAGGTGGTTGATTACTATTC , PBM binding z-score read: 0.492

Known value: PPARg:RXRa (NR concentration 180 nM, RXRa partner concentration 90 nM) PBM binding z-score of the sequence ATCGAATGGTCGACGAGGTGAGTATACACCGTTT equals 0.744

# lookup: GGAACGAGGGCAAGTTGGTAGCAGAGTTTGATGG on PPARg:RXRa (NR concentration 180 nM, RXRa partner concentration 90 nM), PBM binding z-score = 0.752

The reported PBM binding z-score value, PPARg:RXRa (NR concentration 180 nM, RXRa partner concentration 90 nM), for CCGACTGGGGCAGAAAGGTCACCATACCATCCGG reads 4.35

With PPARg:RXRa (NR concentration 180 nM, RXRa partner concentration 90 nM) as the test system, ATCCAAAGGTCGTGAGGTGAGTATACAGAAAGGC showed PBM binding z-score of 5.62

Entry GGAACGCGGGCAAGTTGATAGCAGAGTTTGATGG : PBM binding z-score on PPARg:RXRa (NR concentration 180 nM, RXRa partner concentration 90 nM) = 0.256

Kindly note: PPARg:RXRa (NR concentration 180 nM, RXRa partner concentration 90 nM), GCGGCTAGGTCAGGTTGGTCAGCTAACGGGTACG , PBM binding z-score value reported: 0.166

Kindly note: PPARg:RXRa (NR concentration 180 nM, RXRa partner concentration 90 nM), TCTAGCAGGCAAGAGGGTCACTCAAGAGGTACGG , PBM binding z-score value reported: 1.01

Lab entry: PPARg:RXRa (NR concentration 180 nM, RXRa partner concentration 90 nM) assay, sequence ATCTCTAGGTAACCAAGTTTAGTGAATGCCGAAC , PBM binding z-score = 0.412

Test item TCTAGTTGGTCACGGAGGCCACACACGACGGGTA ; PPARg:RXRa (NR concentration 180 nM, RXRa partner concentration 90 nM); reported PBM binding z-score was 1.19

For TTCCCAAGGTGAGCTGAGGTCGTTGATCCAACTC on PPARg:RXRa (NR concentration 180 nM, RXRa partner concentration 90 nM), measured PBM binding z-score was -0.346

Record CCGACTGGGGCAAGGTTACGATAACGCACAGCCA / PPARg:RXRa (NR concentration 180 nM, RXRa partner concentration 90 nM), PBM binding z-score recorded as 2.79

Entry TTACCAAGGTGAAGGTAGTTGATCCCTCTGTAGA under PPARg:RXRa (NR concentration 180 nM, RXRa partner concentration 90 nM) had PBM binding z-score of 0.324

* * *

# System: RARg:RXRa (NR concentration 270 nM, RXRa partner concentration 90 nM)
# MEASUREMENT_DESCRIPTION: PBM binding z-score (relative to random genomic background probes); higher = stronger binding; sequences stand for … in GC…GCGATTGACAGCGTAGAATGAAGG
Listed below: PBM binding z-score values for each entry.
Give the figure by itself; no unit, no explanation.

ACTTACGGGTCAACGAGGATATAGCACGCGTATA	5.35
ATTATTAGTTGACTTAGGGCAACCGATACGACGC	1.11
CGTTACGGGTCAAGGTTATAGCACGGGTGGTACG	4.89
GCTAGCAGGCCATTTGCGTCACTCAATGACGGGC	-0.404
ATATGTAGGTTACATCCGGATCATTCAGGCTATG	1.02

Continue with the sequence presented below.
PBM binding z-score reading for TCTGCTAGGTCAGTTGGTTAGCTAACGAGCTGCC : 2.15
